Measured IC50, μg/ml COX-2 by item
# Subject of test: UniProt Q05769
# Sequence (Q05769 18-604): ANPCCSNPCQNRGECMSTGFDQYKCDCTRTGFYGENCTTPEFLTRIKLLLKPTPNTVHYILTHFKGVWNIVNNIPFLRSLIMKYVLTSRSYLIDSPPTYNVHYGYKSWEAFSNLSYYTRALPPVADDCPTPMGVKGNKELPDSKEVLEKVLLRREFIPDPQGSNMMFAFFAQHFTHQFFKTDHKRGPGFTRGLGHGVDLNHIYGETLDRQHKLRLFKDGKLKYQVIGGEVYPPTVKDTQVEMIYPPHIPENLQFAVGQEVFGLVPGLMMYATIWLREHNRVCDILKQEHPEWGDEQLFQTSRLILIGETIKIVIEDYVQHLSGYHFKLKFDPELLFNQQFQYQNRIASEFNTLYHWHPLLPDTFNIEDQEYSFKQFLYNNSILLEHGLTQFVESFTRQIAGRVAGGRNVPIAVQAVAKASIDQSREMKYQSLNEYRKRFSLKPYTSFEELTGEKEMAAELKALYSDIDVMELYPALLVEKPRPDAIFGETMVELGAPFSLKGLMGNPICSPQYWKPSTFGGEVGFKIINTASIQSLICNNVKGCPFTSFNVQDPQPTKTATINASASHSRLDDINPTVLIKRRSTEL
# Assay text: Evaluation of COX-2 activity: PGE2 formation in aspirin-treated, LPS-stimulated mouse peritoneal macrophages
# Type: cell-based
Value kind: IC50, μg/ml COX-2 (µg/mL)

> print(dat)
                                    compound  subject.of.test  unit.label  numeric.readout
 1  CSc1ccc(C2=C(c3cccc(Cl)c3)C(=O)C(C)(C)O2)cc1   UniProt Q05769       µg/mL              0.5
 2  CCC1(C)OC(c2ccc(S(C)(=O)=O)cc2)=C(c2cccnc2)C1=O (centres unmarked)   UniProt Q05769       µg/mL              0.2
 3  CC1(C)OC(c2ccc(S(N)(=O)=O)c(Cl)c2)=C(c2ccccc2)C1=O   UniProt Q05769       µg/mL             0.06
 4  CC1(C)OC(c2ccc(S(C)(=O)=O)cc2F)=C(c2ccc(F)cc2)C1=O   UniProt Q05769       µg/mL             0.03
 5  CNS(=O)(=O)c1ccc(C2=C(c3ccccc3)C(=O)C(C)(C)O2)cc1Cl   UniProt Q05769       µg/mL             0.09
 6  C[S+]([O-])c1ccc(C2=C(c3ccccc3)C(=O)C(C)(C)O2)cc1F (centres unmarked)   UniProt Q05769       µg/mL              0.2
 7  CC1(C)OC(c2ccc(S(N)(=O)=O)cc2)=C(c2cc(Cl)cc(Cl)c2)C1=O   UniProt Q05769       µg/mL           0.0087
 8  CSc1ccc(C2=C(c3cc(F)cc(F)c3)C(=O)C(C)(C)O2)cc1Br   UniProt Q05769       µg/mL               10
 9  CC1(C)OC(c2ccc(S(C)(=O)=O)c(Br)c2)=C(c2cccc(Cl)c2)C1=O   UniProt Q05769       µg/mL             0.02
10  CC1(C)OC(c2ccc(S(C)(=O)=O)c(F)c2)=C(c2c(F)cccc2F)C1=O   UniProt Q05769       µg/mL              0.7
11  CC1(C)OC(c2ccc(S(N)(=O)=O)c(Cl)c2)=C(c2cccc(F)c2)C1=O   UniProt Q05769       µg/mL             0.02
12  CC1(C)OC(c2ccc(S(N)(=O)=O)c(Cl)c2)=C(c2cc(F)cc(F)c2)C1=O   UniProt Q05769       µg/mL             0.02
13  Cc1ccc(F)cc1C1=C(c2ccc(S(C)(=O)=O)cc2)OC(C)(C)C1=O   UniProt Q05769       µg/mL             0.05
14  CC1(C)OC(c2ccc(S(C)(=O)=O)cc2)=C(c2cccc([N+](=O)[O-])c2)C1=O   UniProt Q05769       µg/mL             0.05
15  CC1(C)OC(c2ccc(S(C)(=O)=O)cc2)=C(c2cccc(F)c2)C1=O   UniProt Q05769       µg/mL             0.02
16  CC1(C)OC(c2ccc(S(C)(=O)=O)cc2)=C(c2ccc(O)cc2)C1=O   UniProt Q05769       µg/mL              0.3
17  COc1cccc(C2=C(c3ccc(S(C)(=O)=O)cc3)OC(C)(C)C2=O)c1   UniProt Q05769       µg/mL              0.1
